Target: LOX (Sus scrofa, UniProt P45845)
Construct: LOX enzyme was extracted from pig skin by the method of Shackleton and Hulmes; from tissue; host or cells: pig skin
Sequence (P45845 whole entry): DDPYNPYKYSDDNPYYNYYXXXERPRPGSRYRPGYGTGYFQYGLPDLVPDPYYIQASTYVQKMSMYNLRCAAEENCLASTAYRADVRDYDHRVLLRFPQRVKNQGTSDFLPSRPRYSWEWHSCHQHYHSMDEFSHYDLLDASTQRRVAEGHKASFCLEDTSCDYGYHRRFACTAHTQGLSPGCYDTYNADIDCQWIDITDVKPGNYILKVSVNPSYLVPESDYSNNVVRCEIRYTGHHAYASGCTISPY
Experiment: LOX enzyme activity assay (HRP-coupled fluorescent, cadaverine substrate);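 also: LOX isolated from porcine skin, nine-point dilution series starting at 100 µM, 20 min preincubation with enzyme, BAPN serving as positive control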
Type: biochemical, pig
Conditions: n ≥ 2; n = 2: individual values; n > 2: geometric mean [95% CI]; 20 min preincubation; read-out: LOX IC50
Recorded pIC50 values for a group of compounds are listed next.
API: returns pIC50 as number; meaning -log10 of concentration in mol/L.

Answered examples (4):
> print(dat)
                                   compound  assay.readout  reported
1      Cl.Cl.NCc1ccc(S(=O)(=O)Cc2ccccc2)nc1          pIC50      4.60
2            NCc1ccc(S(=O)(=O)NCc2ccccc2)s1          pIC50      4.82
3  NCc1ccc(S(=O)(=O)N2CCCC2c2ccccc2)s1 (stereo not shown)          pIC50      5.42
4         NCc1ccc(S(=O)(=O)N2CCc3ccccc32)s1          pIC50      5.72

Now, please, on to the next compound.
Entry CS(=O)(=O)N1CCCN(S(=O)(=O)c2ccc(CN)s2)CC1 needs its pIC50 filled in; supply it.
6.03

All figures here come from paper PMC6937593.
